- Tested on: Staphylococcus aureus
- Assay Procedure: Suppression of virulence factors in Staphylococcus aureus NCTC 8325 assessed as reduction in serine protease C expression
- Type: functional, organism-based
Quantity Name: EC50
Give the figure together with its unit, number first.

Prompt: Lab request: please report EC50 under test system Staphylococcus aureus for O=C1C2=C(Nc3ccccc3SC2c2cccc(O)c2)c2ccccc21 (stereo unspecified)
Completion: 3000 nM

----------
- Test system: Staphylococcus aureus
- Assay Procedure: Inhibition of Staphylococcus aureus ClpXP using ssrA degradation tagged fluorescent GFP substrate in presence of ATP regeneration system pre-incubation for 15 mins before substrate addition by fluorescence assay
The source made the active and inactive calls. The calls are words filed in the database; no cut-off is given here.
Form entry, call: pick from Yes for active, No for inactive

Below are worked cases with known answers.
[
  {
    "Compound": "O=C1C2=C(Nc3ccccc3S(=O)(=O)C2c2ccc(F)cc2)c2ccccc21 (stereo not given)",
    "Assayed Target": "Staphylococcus aureus",
    "Group Label": "Yes"
  },
  {
    "Compound": "O=C1C2=C(Nc3ccccc3SC2c2cc(O)cc(O)c2)c2ccccc21 (stereo not given)",
    "Assayed Target": "Staphylococcus aureus",
    "Group Label": "Yes"
  },
  {
    "Compound": "C#CCNC(=O)c1ccc2c(c1)C1=C(C2=O)C(c2cccc(O)c2)Sc2ccccc2N1 (stereo not given)",
    "Assayed Target": "Staphylococcus aureus",
    "Group Label": "Yes"
  }
]

Note: attention shifts to another entry.
Prompt: Returns: the outcome recorded for O=C1C2=C(Nc3ccccc3S(=O)(=O)C2c2cccc(O)c2)c2ccccc21 (stereo not given) in this assay.
Completion: Yes
